# Lookup of reported folding stability dG keyed by entry
B1: EEHEE_rd4_0763 (parent)
chain: LTVHVGNVTYHFDNPEQAEEWAKRMAKKYQGQIHVKDGQFRIE

variants of: B1; experiment: folding stability dG (cDNA display proteolysis); higher = more stable; details: PBS, room temperature
Numbers only; they are read as kcal/mol.

Reference set (10 entries):
>>> readout_value("LTVHVGNVTYHFDNPEQAEEWAKRMAKKYQGQIHVKDGPFRIE [Q39P]")
0.884
>>> readout_value("LTVHVGNVKYHFDNPEQAEEWAKRMAKKYQGQIHVKDGQFRIE [T9K]")
1.38
>>> readout_value("LTVHVGNVTYHFDNPEQAEEWAKRMAKKYQGQQHVKDGQFRIE [I33Q]")
0.795
>>> readout_value("LTVHVGNVTYHFDNPEQAEDWAKRMAKKYQGQIHVKDGQFRIE [E20D]")
1.54
>>> readout_value("LTVHVGNVTYHFDNPEQAECWAKRMAKKYQGQIHVKDGQFRIE [E20C]")
2.44
>>> readout_value("LTVHVGNVTYHFDNHEQAEEWAKRMAKKYQGQIHVKDGQFRIE [P15H]")
1.7
>>> readout_value("LTVHVGNVTYHFDNPEQAEEWAKRMAKSYQGQIHVKDGQFRIE [K28S]")
0.897
>>> readout_value("LTVHVGNVTYHFDNPEQAEEWAKRMRKKYQGQIHVKDGQFRIE [A26R]")
1.06
>>> readout_value("LTVHVGNVTYHFDNPEQAEEWAGRMAKKYQGQIHVKDGQFRIE [K23G]")
1.02
>>> readout_value("LTVHVGNVTYHFDNPGQAEEWAKRMAKKYQGQIHVKDGQFRIE [E16G]")
1.48

Identify measured folding stability dG corresponding to LTVHVGNVTYHFDNPEQAEEWAKRMAKKYQGQIHVKDGQFYIE [R41Y] 3.29

Identify measured folding stability dG corresponding to LTVHAGNVTYHFDNPEQAEEWAKRMAKKYQGQIHVKDGQFRIE [V5A] 1.32

Identify measured folding stability dG corresponding to LTVHVGNVTYHFDNPEQAEEWLKRMAKKYQGQIHVKDGQFRIE [A22L] 1.36

Identify measured folding stability dG corresponding to LTVHVGNVTYHFDNPEQAEEWAKRMAKKAQGQIHVKDGQFRIE [Y29A] 0.762

Identify measured folding stability dG corresponding to LTVHVGNVTYHFDNPEQAEEWMKRMAKKYQGQIHVKDGQFRIE [A22M] 1.36

Identify measured folding stability dG corresponding to LTVHVGNVTYHFDNPEQAEEWAKRMAKKYQGQIHVKKGQFRIE [D37K] 0.884
